B1: SFRS1 (parent)
chain: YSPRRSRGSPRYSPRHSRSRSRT

- Variants of: B1
- assayNotes: protein stability index of a GFP-peptide fusion (GPS, HEK-293T) (PSI 1-6); higher = more stable;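 also: lentivirally expressed fusions sorted by FACS into six bins by GFP to DsRed ratio, PSI derived from sequencing read proportions per bin multiplied by bin number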
- experimentalContext: c terminus: native
Decide by protein stability index: equal to or exceeding 3 means Yes, less means No.

Example entries and their recorded answers appear below.
constructSequence	classLabel
YNPRRSRGSPRYSPRHSRSRSRT	Yes
YSPRRSRGSPRYSLRHSRSRSRT	Yes
YSPRRSRGSPWYSPRHSRSRSRT	No

Enquiry: Evaluate "YSPRRSFGSPRYSPRHSRSRSRT" : protein stability index at minimum 3?
Return: No

Enquiry: Evaluate "YSPRRSRGSPRWSPRHSRSRSRT" : protein stability index at minimum 3?
Return: Yes

Enquiry: Evaluate "YSPRRSRGSPRYSPRHSRSRDRT" : protein stability index at minimum 3?
Return: Yes
